The next entries give measured pKi for UniProtKB Q16790.
Note on units: pKi is unitless, being -log10 of a concentration expressed in mol/L.

Answered cases to consult:
INSERT INTO results (query_smiles, reported_value) VALUES
  ('NS(=O)(=O)c1ccc(Cn2c(=O)c3ccccc3c3ccccc3c2=O)cc1', 6.72),
  ('NS(=O)(=O)c1ccc(CN2C(=O)c3ccc4c5c(ccc(c35)C2=O)C(=O)N(Cc2ccc(S(N)(=O)=O)cc2)C4=O)cc1', 5.56),
  ('NS(=O)(=O)c1ccc(CCN2C(=O)c3cccc4cccc(c34)C2=O)cc1', 6.97),
  ('NS(=O)(=O)c1ccc(CCN2C(=O)c3cccc4cc([N+](=O)[O-])cc(c34)C2=O)cc1', 6.62);

Entry under review: NS(=O)(=O)c1ccc(N2C(=O)c3ccc4c5c(ccc(c35)C2=O)C(=O)N(c2ccc(S(N)(=O)=O)cc2)C4=O)cc1 . Reported pKi?
7.62

Reference for the values: ChEMBL document CHEMBL4043158
